The reported numbers originate from paper PMC5540273.

system: FAK; construct: gene PTK2; details: concentration: 1 μM,replicates: in singlicate; n = 1;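 note: KINOMEscan kinase panel screen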
Reported %Inh values for a set of compounds
Dear colleague, please return just the value in %, with no unit written.

Cc1n[nH]c2cc(Nc3ccnc(Nc4cccc(CN5CCOCC5)c4)n3)ccc12 = 0

query: Requested field: %Inh. Item: COC(=O)c1cccc(NC(=O)NC2CCN(c3ccnc(Nc4cc(OC)c(OC)c(OC)c4)n3)C2)c1 (centres unmarked)
result: 0

query: Any idea what its %Inh is? The compound is Cc1cccc(-c2nc(Nc3ccncc3)c3sccc3n2)n1
result: 2

query: Can you share its %Inh? I mean this compound: CC(C)c1nc(-c2cccc(NS(=O)(=O)c3ccccc3)c2)c(-c2ccnc(Nc3ccc4c(c3)CN(C)CC4)n2)s1
result: 0

query: Need %Inh of Nc1nccc(-c2ccc3c(N)n[nH]c3c2)n1 , thanks.
result: 0

====

system: WEE2; details: concentration: 1 μM,replicates: in singlicate; n = 1
readout_label: %Inh

query: Give its %Inh value. Item: Cn1ccc2ncnc(Oc3ccc(NC(=O)Nc4cncc(C(F)(F)F)c4)c(Cl)c3)c21
result: 7%

query: Entry under review: NC(=O)Nc1sc(-c2ccc(F)cc2)cc1C(N)=O . Reported %Inh?
result: 11%

query: Can you share its %Inh? I mean this compound: C[C@@H]1CNc2c(sc3ccc4nc(-c5ccncc5)ccc4c23)C(=O)N1
result: 0%

query: Request the reported %Inh associated with c1ccc(Oc2ccc(Nc3ccnc4ccc(-c5ccccn5)cc34)cc2)cc1
result: 0%

query: Returns the measured %Inh for the input compound. Input: Cc1ccn2nc(-c3ccc(F)cc3)c(-c3ccncc3)c2c1.Cl
result: 0%

query: Please give the measured %Inh for this compound: CC(C(=O)NC1CCN(c2ccnc(Nc3ccc(F)cc3)n2)C1)c1ccc(Cl)cc1 (stereo not drawn)
result: 13%

====

This listing pairs molecules with measured %Inh.
test system: NIM1; construct: gene MGC42105; conditions: concentration: 1 μM,replicates: in singlicate; n = 1

For orientation, consider the following solved cases.
Nc1nccc(-c2ccc3c(N)n[nH]c3c2)n1 [GSK1034945] = 17%
NC(=O)c1ccc(-c2cc3ncnc(SCC(=O)O)c3s2)cc1 = 0%
Cn1ccc2ncnc(Oc3ccc(NC(=O)Nc4cnn(C(C)(C)C)c4)c(Cl)c3)c21 = 0%

Next, consider the following molecule.
query: Endpoint output: %Inh of Cn1ccc2ncnc(Oc3ccc(NC(=O)Nc4ccnc(C(F)(F)F)c4)c(Cl)c3)c21 . Value?
result: 0%

====

Reported %Inh values for a set of compounds
test system: DAPK1; settings: concentration: 1 μM,replicates: in singlicate; n = 1
Give the value, in units of %, as a plain number.

O=C(Nc1ccc(Oc2ccc3nc(NC(=O)C4CC4)cn3n2)c(F)c1)c1cccn(-c2ccccc2)c1=O = 0
CS(=O)c1ccc(-c2coc3ccc(-c4n[nH]c(=O)o4)cc23)cc1 (stereo not drawn) = 52
COc1cc2nccc(Nc3ccc(Oc4ccccc4)cc3)c2cc1OC.Cl [GI261656] = 0
COc1ccc(Nc2nccc(N3CCC(NC(=O)c4cccc(C#N)c4)C3)n2)cc1 (stereo not drawn) [GSK1379730] = 0
OCCn1cc(-c2cnc3nnn(Cc4ccc5ncccc5c4)c3n2)cn1 = 0
CCCC(=O)Nc1n[nH]c2ncccc12 [SB-601436] = 0

query: Quick check: %Inh of C[C@@H]1CNc2c(sc3ccc4nc(-c5ccncc5)ccc4c23)C(=O)N1 ?
result: 30

query: For the compound shown here, Cn1ccc2ncnc(Oc3ccc(NC(=O)Nc4cccc(C(F)(F)F)c4)c(F)c3)c21 , give the reported %Inh.
result: 1

query: What %Inh value was documented for this compound, CNC(=O)c1ccccc1Nc1nc(Nc2cccc(CS(C)(=O)=O)c2)ncc1C.O=CO [GSK1520489] ?
result: 89
